- assay-info: chemical genetic growth profiling, strain panel (AID 1159580);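 also: tested at 20 µM; growth read once vehicle control cultures reached saturation at 30 °C; 1 = growth at the plate median or of vehicle wells; lower values mean less growth of the strain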
- test-settings: S. cerevisiae deletion strains, growth OD, locus YPL241C, strain CIN2, hits give low values
Out of some 5,500 compounds screened, about 2,000 (36%) were called active. Not shown: some 18% with an inconclusive outcome. The list shows a part of the results.
measured-attribute: normalized growth
I only need the number, thanks.

compound: O=C1c2ccccc2C(=O)C1(c1ccccc1)[N+](=O)[O-]
normalized growth: 0.0628
//
compound: COc1ccc2c(c1)OC/C(=C/c1ccc(OC)c(OC)c1)C2=O
normalized growth: 0.994

Need normalized growth, item CCCCCCCC/C=C\CCCCCCCC(=O)NCCc1ccc(O)c(O)c1
0.993

Follow-up entry: O=S(=O)(O)CCS
1.01

Also O=C(c1ccc(OCCN2CCCCC2)cc1)c1c(-c2ccc(O)cc2)sc2cc(O)ccc12 , if possible.
1

###

- assay-info: chemical genetic growth profiling, strain panel (AID 1159580)
- test-settings: S. cerevisiae deletion strains, growth OD, locus YLR262C, strain YPT6 (second series)
About 2,000 (36%) of roughly 5,500 compounds were called active. Not shown: some 18% with an inconclusive outcome. No stated cut-off is given here; in the data, active means normalized growth mostly below about 0.91 (no sharp cut-off); inconclusive means no clear call, values can overlap the other calls; inactive means mostly above about 0.92. The list shows a part of the results.
Permitted responses: yes (1) (active), no (0) (inactive)

Sample answers from the record:
compound: C=CCc1ccc(OC)cc1
class-label: no (0)
--
compound: C=CCc1ccc(O)c(OC)c1
class-label: no (0)
--
compound: COC(=O)C[C@H]1C2(C)CC34OC5(C)O[C@@]6([C@H](OC)C(OC(=O)C(C)C)[C@]7(C)C(/C(=C(/OC)C(C)C)C(=O)O[C@H]7c7ccoc7)[C@@]6(O5)[C@H](OC)[C@@]3(OC)C2OC(C)=O)[C@]14C (some centres not stated)
class-label: no (0)
--
compound: CCCCCCCCCCC[C@@H](C[C@H]1OC(=O)[C@H]1CCCCCC)OC(=O)[C@@H](CC(C)C)NC=O
class-label: no (0)
--
compound: COC(=O)C[C@H]1C2(C)CC34OC5(C)O[C@@]6([C@H](OC(C)=O)C(OC(C)=O)[C@]7(C)C(/C(=C(/O)C(C)C)C(=O)O[C@H]7c7ccoc7)[C@@]6(O5)[C@H](OC(C)=O)[C@@]3(O)C2OC(=O)C(C)C)[C@]14C (some centres not stated)
class-label: no (0)
--
compound: CCC(C)C(=O)O[C@@H]1C[C@@]2(C)[C@H](c3ccoc3)OC(=O)CC23OC2(C)O[C@]14[C@]1(C)[C@@H](CC(=O)OC)C5(C)CC1(O)[C@](O)(C5OC(=O)C1(C)OC1C)[C@@H](OC(C)=O)[C@]34O2 (some centres not stated)
class-label: yes (1)

Now examine the next entry.
What is the recorded call for this compound in the test? COc1ccc(C(=O)O)cc1OC
no (0)

###

- assay-info: chemical genetic growth profiling, strain panel (AID 1159580)
- test-settings: S. cerevisiae deletion strains, growth OD, locus YAR019C, strain CDC15, hits give low values
The whole screen tested about 5,500 compounds, of which about 2,000 (36%) were called active. About 18% were inconclusive and are not listed. This is one part of the list.
// classify: if (normalized growth < 0.4) YES else NO

smiles: O=C(c1csc(-c2ccc(Cl)cc2)c1)N1CCCCC1
class-label: NO

smiles: N#C/C(=N/Nc1ccc(F)cc1)C(=O)c1ccccc1
class-label: NO

smiles: N#C/C(=N/Nc1ccccc1)C(=O)c1ccccc1OC(F)(F)F
class-label: NO

smiles: CC(=O)/C(C#N)=N\Nc1ccc(F)cc1
class-label: NO

Problem: For the compound CC(C)(C)c1ccc(N/N=C(\C#N)C(N)=O)cc1 , is normalized growth under 0.4?
YES

###

- assay-info: chemical genetic growth profiling, strain panel (AID 1159580)
- test-settings: S. cerevisiae deletion strains, growth OD, locus YMR231W, strain pep5, hits give low values
In all, about 5,500 compounds went through this assay and about 2,000 (36%) were called active. Roughly 18% stayed inconclusive and do not appear here. The list shows a part of the results.
Label t when normalized growth is strictly below 1; otherwise label f.

Please state whether normalized growth is below 1 for COc1ccc(-c2coc3cc(O)ccc3c2=O)c(O)c1O
t

###

Recorded normalized growth values for a group of compounds are listed next.
- assay-info: chemical genetic growth profiling, strain panel (AID 1159580);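 also: tested at 20 µM; growth read once vehicle control cultures reached saturation at 30 °C; 1 = growth at the plate median or of vehicle wells; lower values mean less growth of the strain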
- test-settings: S. cerevisiae deletion strains, growth OD, locus YJL168C, strain set2, hits give low values
Out of some 5,500 compounds screened, about 2,000 (36%) were called active. Roughly 18% stayed inconclusive and do not appear here. Some of the results follow.
Answer using only a numeral; do not append any unit.

Recorded results for 5 compounds are shown here.
compound: O=C(O)c1cc2cc(F)ccc2[nH]1
measured-attribute: normalized growth
observed-measurement: 1.02
--
compound: Cc1ccc(S(=O)(=O)NC(=O)NN2CCCCCC2)cc1
measured-attribute: normalized growth
observed-measurement: 0.987
--
compound: O=c1c(-c2ccc(O)cc2)coc2cc(O)ccc12
measured-attribute: normalized growth
observed-measurement: 0.99
--
compound: COC(=O)C[C@H]1C2(C)CC34OC5(C)O[C@@]6([C@H](OC)C(OC(=O)C(C)C)[C@]7(C)C(/C(=C(/OC)C(C)C)C(=O)O[C@H]7c7ccoc7)[C@@]6(O5)[C@H](OC)[C@@]3(OC)C2OC(C)=O)[C@]14C (stereo partly specified)
measured-attribute: normalized growth
observed-measurement: 1.01
--
compound: CC1(C)S[C@@H]2[C@H](NC(=O)[C@H](N)c3ccccc3)C(=O)N2[C@H]1C(=O)O
measured-attribute: normalized growth
observed-measurement: 1

Would you mind telling me what normalized growth value was observed for O=C1NCC2(CCN(CCc3ccccc3)CC2)O1 ?
1.01

###

- assay-info: chemical genetic growth profiling, strain panel (AID 1159580);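 also: tested at 20 µM; growth read once vehicle control cultures reached saturation at 30 °C; 1 = growth at the plate median or of vehicle wells; lower values mean less growth of the strain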
- test-settings: S. cerevisiae deletion strains, growth OD, locus YNL067W, strain RPL9B, hits give low values
Among all 5,500 compounds or so, about 2,000 (36%) were called active. Another 18% or so got no clear call; they are omitted. This is one part of the list.
measured-attribute: normalized growth
Answer using only a numeral; do not append any unit.

Reference set (4 entries):
compound: CCCCCCCCCCC[C@@H](C[C@H]1OC(=O)[C@H]1CCCCCC)OC(=O)[C@@H](CC(C)C)NC=O
measured-attribute: normalized growth
observed-measurement: 1.04
--
compound: Nc1nc(=S)c2[nH]cnc2[nH]1
measured-attribute: normalized growth
observed-measurement: 1.02
--
compound: COc1ccc(-c2coc3cc(OC)ccc3c2=O)cc1
measured-attribute: normalized growth
observed-measurement: 0.886
--
compound: C[C@@H]1O[C@@H](O[C@H]2[C@H](Oc3cc(O)c4c(=O)cc(-c5ccc(O)cc5)oc4c3)O[C@H](CO)[C@@H](O)[C@@H]2O)[C@H](O)[C@H](O)[C@H]1O
measured-attribute: normalized growth
observed-measurement: 0.999

I'd like to know its normalized growth. The compound in question is CC[C@@H](C(=O)C(C)[C@@H](O)[C@H](C)CCc1ccc(C)c(O)c1C(=O)O)C1OC(CC)(C2CC[C@](O)(CC)[C@H](C)O2)C[C@@H]1C (some centres not stated)
1.02

Try this compound next: CCCCC[C@H]1C(=O)O[C@H](C)[C@H](NC(=O)c2cccc(NC=O)c2O)C(=O)O[C@@H](C)[C@@H]1OC(=O)CC(C)C
0.921

Follow-up entry: Cc1ccc(S(=O)(=O)NC(=O)NN2CCCCCC2)cc1
1.02

Then Oc1cc(O)c2c(c1)O[C@H](c1ccc(O)c(O)c1)[C@H](O)C2 ?
0.971

What would you report for COc1ccc(-c2coc3cc(O)ccc3c2=O)cc1 ?
0.87

###

- assay-info: chemical genetic growth profiling, strain panel (AID 1159580);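 also: tested at 20 µM; growth read once vehicle control cultures reached saturation at 30 °C; 1 = growth at the plate median or of vehicle wells; lower values mean less growth of the strain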
- test-settings: S. cerevisiae deletion strains, growth OD, locus YDR335W, strain msn5, hits give low values
Among all 5,500 compounds or so, about 2,000 (36%) were called active. Another 18% or so got no clear call; they are omitted. The list shows a part of the results.
Entries and their normalized growth values follow.
Please give only the number in your answer, with no unit.

Example compounds with recorded normalized growth:
compound: C[C@H]1COc2c(N3CCN(C)CC3)c(F)cc3c(=O)c(C(=O)O)cn1c23
observed-measurement: 1.02

compound: CCn1cc(C(=O)O)c(=O)c2cc(F)c(N3CCNC(C)C3)c(F)c21 (configuration not stated)
observed-measurement: 0.968

compound: COc1c(N2CCNC(C)C2)c(F)cc2c(=O)c(C(=O)O)cn(C3CC3)c12 (configuration not stated)
observed-measurement: 0.972

compound: CC1CCc2cc(F)cc3c(=O)c(C(=O)O)cn1c23 (configuration not stated)
observed-measurement: 0.991

Look up normalized growth for this compound: CCn1cc(C(=O)O)c(=O)c2cc(F)c(N3CCNCC3)nc21
0.979

And what about the compound CO/N=C1/CN(c2nc3c(cc2F)c(=O)c(C(=O)O)cn3C2CC2)CC1CN (configuration not stated) ?
1.01

Also CC1COc2c(N3CCN(C)CC3)c(F)cc3c(=O)c(C(=O)O)cn1c23 (configuration not stated) , if possible.
0.997
